molecular target: Beta-2 adrenergic receptor (Homo sapiens)
Sequence (P07550 whole entry): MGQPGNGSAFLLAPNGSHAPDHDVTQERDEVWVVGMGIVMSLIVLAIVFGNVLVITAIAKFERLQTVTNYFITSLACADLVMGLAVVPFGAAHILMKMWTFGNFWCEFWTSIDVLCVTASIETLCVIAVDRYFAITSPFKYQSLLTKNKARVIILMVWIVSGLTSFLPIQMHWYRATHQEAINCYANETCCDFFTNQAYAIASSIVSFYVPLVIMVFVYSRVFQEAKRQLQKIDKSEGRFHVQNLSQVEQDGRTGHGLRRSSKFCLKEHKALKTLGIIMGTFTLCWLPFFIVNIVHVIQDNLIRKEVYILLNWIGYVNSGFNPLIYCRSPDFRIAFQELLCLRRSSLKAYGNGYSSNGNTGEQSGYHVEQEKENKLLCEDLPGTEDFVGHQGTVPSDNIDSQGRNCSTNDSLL
pKi: −log10 of the molar value.
endpoint: pKi

compound: CC(C)c1ccccc1OCC(O)CN1CCN(CCN2C(=O)c3cccc4cccc(c34)C2=O)CC1 (stereo not given)
system-under-test: Beta-2 adrenergic receptor (Homo sapiens)
assay-value: 7.15
--
compound: COc1cc2c3c(cccc3c1)C(=O)N(CC1CCN(CC(O)COc3cccc4[nH]c5ccccc5c34)CC1)C2=O (stereo not given)
system-under-test: Beta-2 adrenergic receptor (Homo sapiens)
assay-value: 8.10
--
compound: CC(C)c1ccccc1OCC(O)CN1CCC(N2C(=O)c3cccc4cccc(c34)C2=O)CC1 (stereo not given)
system-under-test: Beta-2 adrenergic receptor (Homo sapiens)
assay-value: 7.89
--
compound: C=CCc1ccccc1OCC(O)CN1CCC(CN2C(=O)CCCC2=O)CC1 (stereo not given)
system-under-test: Beta-2 adrenergic receptor (Homo sapiens)
assay-value: 7.10
--
compound: COc1ccc(CC2CCN(CC(O)COc3cccc4[nH]c5ccccc5c34)CC2)cc1 (stereo not given)
system-under-test: Beta-2 adrenergic receptor (Homo sapiens)
assay-value: 9.70

###

The following molecules have recorded log10 of Ki on UniProtKB P07550.
endpoint: log10 of Ki (log10 of the value in nM)

molecule: OC(COc1cccc2[nH]c3ccccc3c12)CN1CCC(Cc2ccccc2)CC1 (centres undefined)
log10 of Ki: -0.30
//
molecule: Cc1ccc(C(C)C)c(OCC(O)CN2CCN(CCN3C(=O)c4cccc5cccc(c45)C3=O)CC2)c1 (centres undefined)
log10 of Ki: 2.04
//
molecule: O=C1c2cccc3cccc(c23)C(=O)N1CC1CCN(CC(O)COc2cccc3[nH]ccc23)CC1 (centres undefined)
log10 of Ki: 2.08
//
molecule: O=C(c1ccccc1)C1CCN(CC(O)COc2cccc3[nH]c4ccccc4c23)CC1 (centres undefined)
log10 of Ki: -0.70
//
molecule: C=CCc1ccccc1OCC(O)CN1CCN(CCN2C(=O)c3cccc4cccc(c34)C2=O)CC1 (centres undefined)
log10 of Ki: 2.18
//
molecule: OC(COc1cccc2[nH]c3ccccc3c12)CN1CCC(Cc2cccnc2)CC1 (centres undefined)
log10 of Ki: -1.00
//
molecule: C=CCc1ccccc1OCC(O)CN1CCC(CN2C(=O)c3cccc4cc(O)cc(c34)C2=O)CC1 (centres undefined)
log10 of Ki: 2.13
//
molecule: CC(C)c1ccccc1OCC(O)CNC1CCN(C)CC1 (centres undefined)
log10 of Ki: 1.23
//
molecule: CC(C)c1ccccc1OCC(O)CN1CCOCC1 (centres undefined)
log10 of Ki: 0.08

###

target: Beta-2 adrenergic receptor (Homo sapiens)
pKi: −log10 of the molar value.
endpoint: pKi

compound: COc1ccc(C(=O)C2CCN(CC(O)COc3cccc4[nH]c5ccccc5c34)CC2)cc1 (centres undefined)
endpoint: pKi
assay-value: 9.70

compound: O=C1c2cccc3cccc(c23)C(=O)N1CC1CCN(CC(O)COc2ccc3[nH]ccc3c2)CC1 (centres undefined)
endpoint: pKi
assay-value: 5.90

compound: O=C(c1ccc(F)cc1)C1CCN(CC(O)COc2cccc3[nH]c4ccccc4c23)CC1 (centres undefined)
endpoint: pKi
assay-value: 9.52

compound: CC(C)c1ccccc1OCC(O)CN1CCC(CN2C(=O)c3ccccc3C2=O)CC1 (centres undefined)
endpoint: pKi
assay-value: 7.77

compound: O=C1c2cccc3cccc(c23)C(=O)N1CC1CCN(CC(O)COc2cccc3[nH]c4ccccc4c23)CC1 (centres undefined)
endpoint: pKi
assay-value: 8.52

compound: CC(C)c1ccccc1OCC(O)CN1CCC(CN2C(=O)CCCC2=O)CC1 (centres undefined)
endpoint: pKi
assay-value: 8.05

compound: C=CCc1ccccc1OCC(O)CN1CCC(CN2C(=O)c3ccccc3C2=O)CC1 (centres undefined)
endpoint: pKi
assay-value: 7.30

compound: COc1ccc(OCC(O)CN2CCC(CN3C(=O)c4cccc5cccc(c45)C3=O)CC2)c(C(C)(C)C)c1 (centres undefined)
endpoint: pKi
assay-value: 6.52

compound: O=C1c2cccc3cccc(c23)C(=O)N1C1CCN(CC(O)COc2cccc3[nH]c4ccccc4c23)CC1 (centres undefined)
endpoint: pKi
assay-value: 7.24
